From: PubChem BioAssay (NCI)

Provide the recorded TGI for the entries that follow.
System: SR leukemia
Test: NCI tumour cell line growth inhibition, 48 h

For COC(=O)/C=C(\C)CC(O)/C=C(\C)CCC=C(C)C (stereo unspecified) the compound record lists TGI as 68.2 µM

For Cc1nn(-c2ccccc2)c2c1C(c1ccc(Cl)cc1)NC(=S)N2 (stereo unspecified) the compound record lists TGI as > 100 µM

For Cc1ccnc2[nH]c3ccccc3c(=O)c12 the compound record lists TGI as > 100 µM

For CN(C)CCC(=O)c1ccccc1 the compound record lists TGI as 57.4 µM

For CCOC(=O)C12OC(CCC1=O)C(C(=O)OC)=C2C(=O)OC (stereo unspecified) the compound record lists TGI as > 10 µM

For Cc1nc2c(nc1C)-c1[nH]c3c(c1C(=O)C2=O)CCCC3=O the compound record lists TGI as 6.4 µM

For O=c1cc(-c2cccc3ccccc23)[nH]c2ncccc12 the compound record lists TGI as > 100 µM

For O=c1c(/C=C/c2c(O)ccc3ccccc23)nnc2sc(-c3cccc(Br)c3)nn12 the compound record lists TGI as 41.1 µM

For COc1ccc(/C=C2\N=C(SC)N(CN3CCOCC3)C2=O)cc1 the compound record lists TGI as > 100 µM

For O=C(O)C(NCc1ccccc1)C(NCc1ccccc1)C(=O)O (stereo unspecified) the compound record lists TGI as > 100 µM

For COC(CNC(=O)C(C)NC(=O)/C=C/c1ccccc1)OC (stereo unspecified) the compound record lists TGI as > 100 µM

For O=C1C(c2c(O)[nH]c3ccc(F)cc23)=Nc2ccccc21 the compound record lists TGI as > 100 µM

For COc1cc(C2c3cc4c(cc3OC3(OC)COC(=O)C23)OCO4)cc(OC)c1OC(C)=O (stereo unspecified) the compound record lists TGI as > 31.6 µM

For N#Cc1c(-c2ccc(Cl)cc2Cl)nc2[nH][nH]c(=S)n2c1=O the compound record lists TGI as > 100 µM

For CC1OC(OC2C(O)COC(OC3C(C)OC(OC4C(OC(=O)[C@]56CCC(C)(C)C[C@@H]5C5=CCC7[C@@]8(C)C[C@H](O)[C@H](OC9OC(CO)C(O)C(O)C9O)[C@@](C)(CO)[C@@H]8CC[C@@]7(C)[C@]5(C)CC6)OCC(O)C4O)C(O)C3OC3OCC(O)(CO)C3O)C2O)C(O)C(O)C1O (stereo partly specified) the compound record lists TGI as 38 µM

For C[C@@H]1CC[C@@H]2[C@@H]1[C@H](OC(=O)/C=C/c1ccccc1)[C@]1(C3CCCCC3)C[C@@H](OC(=O)CO)[C@@]2(C)O1 the compound record lists TGI as 6.9 µM
